Molecular target: Acetylcholinesterase (Homo sapiens, UniProt P22303)
Sequence (P22303 whole entry): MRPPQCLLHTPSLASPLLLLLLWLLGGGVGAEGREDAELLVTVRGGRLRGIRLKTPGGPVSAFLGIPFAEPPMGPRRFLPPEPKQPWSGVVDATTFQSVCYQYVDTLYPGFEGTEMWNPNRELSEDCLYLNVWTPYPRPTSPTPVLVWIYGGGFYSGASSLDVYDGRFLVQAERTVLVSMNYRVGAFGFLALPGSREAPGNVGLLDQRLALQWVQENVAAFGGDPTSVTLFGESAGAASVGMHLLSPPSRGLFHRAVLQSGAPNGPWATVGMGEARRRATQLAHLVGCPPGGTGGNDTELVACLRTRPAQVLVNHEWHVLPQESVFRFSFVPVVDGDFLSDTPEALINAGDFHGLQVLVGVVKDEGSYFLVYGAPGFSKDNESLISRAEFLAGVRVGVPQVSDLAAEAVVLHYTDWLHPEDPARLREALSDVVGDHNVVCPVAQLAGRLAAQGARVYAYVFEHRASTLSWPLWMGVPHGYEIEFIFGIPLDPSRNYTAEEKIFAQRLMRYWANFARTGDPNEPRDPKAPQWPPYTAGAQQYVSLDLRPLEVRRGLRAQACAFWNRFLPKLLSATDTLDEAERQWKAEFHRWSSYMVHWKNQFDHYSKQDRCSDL
Assay: Inhibition of human AchE preincubated for 15 mins followed by substrate addition and measured for 5 mins using acetylthiocholine iodide as substrate by DTNB reagent based Ellman's method
observed-property: IC50 (µM)
Use µM as the unit, but write only the number.

IN: I'd like to know its IC50. The compound in question is C[N+](C)(C)CCNC(=O)/C=C/c1ccc(O)c(O)c1
OUT: 7.3

---

Observed pIC50 values for Beta-secretase 1 (Homo sapiens) are listed in what follows.
// field semantics: pIC50 = negative decimal log of concentration (mol/L)

INSERT INTO results (chemical_smiles, observed_property, quantitative_result) VALUES
  ('COc1cc(/C=C/c2nnc(-c3ccc(C(F)(F)F)cc3)o2)ccc1O', 'pIC50', 6.59);

Here is another compound to look at.
IN: Query pIC50 on Beta-secretase 1 (Homo sapiens) for COc1cc(/C=C/c2nnc(-c3ccc(OC(F)(F)F)cc3)o2)ccc1O
Sequence (P56817 whole entry): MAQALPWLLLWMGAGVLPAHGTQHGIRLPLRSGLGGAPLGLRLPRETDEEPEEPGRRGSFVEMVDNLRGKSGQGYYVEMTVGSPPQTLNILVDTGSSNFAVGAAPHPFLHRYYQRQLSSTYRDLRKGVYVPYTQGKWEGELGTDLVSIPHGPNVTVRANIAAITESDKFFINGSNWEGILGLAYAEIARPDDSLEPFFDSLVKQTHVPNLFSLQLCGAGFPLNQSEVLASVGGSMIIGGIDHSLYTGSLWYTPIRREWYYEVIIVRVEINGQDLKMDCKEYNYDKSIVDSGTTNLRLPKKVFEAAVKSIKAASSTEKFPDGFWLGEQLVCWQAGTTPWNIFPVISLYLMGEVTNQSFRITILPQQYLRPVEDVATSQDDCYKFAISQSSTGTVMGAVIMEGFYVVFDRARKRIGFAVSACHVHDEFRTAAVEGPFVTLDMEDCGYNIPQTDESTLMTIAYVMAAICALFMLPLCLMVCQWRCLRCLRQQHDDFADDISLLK
OUT: 6.68

---

Assay: Antioxidant activity assessed as DPPH radical scavenging activity incubated for 30 mins by UV-Vis spectrophotometric analysis
Assay type: functional
observed-property: IC50 (µM)
Give the value, in units of µM, as a plain number.

INSERT INTO results (chemical_smiles, u, quantitative_result) VALUES
  ('COc1cc(/C=C/C(=O)NCCC2CCN(Cc3ccccc3)CC2)ccc1O', 'µM', 34.1),
  ('COc1ccc(/C=C/C(=O)NCCC2CCN(Cc3ccccc3)CC2)cc1O', 'µM', 764);

Proceeding to the next compound to report its IC50.
IN: Fill in the blank: the reported IC50 of COc1cc(/C=C/C(=O)NCCC2CCN(Cc3ccccc3)CC2)cc(OC)c1O is ____.
OUT: 24.9

---

Target: Acetylcholinesterase (Electrophorus electricus)
Test: Inhibition of electric eel AChE preincubated for 15 mins followed by substrate addition using acetylthiocholine iodide as substrate by Ellman's method
observed-property: IC50 (nM)
Form entry: value (nM) — number only.

INSERT INTO measurements (compound, study_system, quantitative_result) VALUES
  ('COc1ccc(/C=C/C(O)NCCCNc2c3c(nc4ccccc24)CCCC3)cc1OC (configuration not stated)', 'Acetylcholinesterase (Electrophorus electricus)', 90);

IN: Any idea what IC50 was measured for O=C(/C=C/CCc1ccc2c(c1)OCO2)NCCCNc1c2c(nc3ccccc13)CCCC2 ?
OUT: 130

---

Reported IC50 values are given for each entry in this list.
Experiment: Antioxidant activity assessed as GO radical cation scavenging activity measured for 30 mins by spectrophotometeric analysis
Assay type: functional
Numeric only. Scale: µM

INSERT INTO measurements (molecule, quantitative_result) VALUES
  ('COc1cc(/C=C/C(=O)O)ccc1S', 4.25);

Query molecule follows.
IN: Look up IC50: COc1cc(/C=C/C(=O)O)ccc1O [FERULATE]
OUT: 37.5

---

Measured pIC50 by item
Target: Cholinesterase (Homo sapiens, UniProt P06276)
Sequence (P06276 whole entry): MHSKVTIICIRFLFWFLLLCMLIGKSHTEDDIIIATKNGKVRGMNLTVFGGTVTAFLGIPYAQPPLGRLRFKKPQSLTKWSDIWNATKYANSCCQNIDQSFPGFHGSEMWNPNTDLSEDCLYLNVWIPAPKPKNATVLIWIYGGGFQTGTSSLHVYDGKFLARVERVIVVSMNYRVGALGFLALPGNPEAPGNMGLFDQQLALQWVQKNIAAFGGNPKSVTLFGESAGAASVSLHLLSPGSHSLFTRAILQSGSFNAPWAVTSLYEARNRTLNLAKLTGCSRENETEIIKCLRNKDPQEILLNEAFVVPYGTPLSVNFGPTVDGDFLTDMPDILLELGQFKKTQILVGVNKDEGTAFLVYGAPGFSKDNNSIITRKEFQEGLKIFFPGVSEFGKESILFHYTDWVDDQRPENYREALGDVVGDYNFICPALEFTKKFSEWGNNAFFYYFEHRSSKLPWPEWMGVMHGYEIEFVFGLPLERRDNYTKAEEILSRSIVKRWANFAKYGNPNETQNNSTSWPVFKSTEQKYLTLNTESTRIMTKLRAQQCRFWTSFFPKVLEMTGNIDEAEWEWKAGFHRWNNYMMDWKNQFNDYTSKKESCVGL
Experiment: Inhibition of human BuchE using butyrylthiocholine iodide as substrate by Ellman colorimetric assay
Keep it numeric: pIC50 is minus log10 of the concentration in mol/L.

INSERT INTO assay_data (chemical_smiles, quantitative_result) VALUES
  ('COc1cc(/C=C/c2nnc(-c3ccc(C(F)(F)F)cc3)o2)ccc1O', 6.59);

Here is another molecule to look at.
IN: For the molecule shown here, COc1cc(/C=C/c2nnc(-c3ccc(OC(F)(F)F)cc3)o2)ccc1O , give the reported pIC50.
OUT: 6.68

---

Target protein (sequence): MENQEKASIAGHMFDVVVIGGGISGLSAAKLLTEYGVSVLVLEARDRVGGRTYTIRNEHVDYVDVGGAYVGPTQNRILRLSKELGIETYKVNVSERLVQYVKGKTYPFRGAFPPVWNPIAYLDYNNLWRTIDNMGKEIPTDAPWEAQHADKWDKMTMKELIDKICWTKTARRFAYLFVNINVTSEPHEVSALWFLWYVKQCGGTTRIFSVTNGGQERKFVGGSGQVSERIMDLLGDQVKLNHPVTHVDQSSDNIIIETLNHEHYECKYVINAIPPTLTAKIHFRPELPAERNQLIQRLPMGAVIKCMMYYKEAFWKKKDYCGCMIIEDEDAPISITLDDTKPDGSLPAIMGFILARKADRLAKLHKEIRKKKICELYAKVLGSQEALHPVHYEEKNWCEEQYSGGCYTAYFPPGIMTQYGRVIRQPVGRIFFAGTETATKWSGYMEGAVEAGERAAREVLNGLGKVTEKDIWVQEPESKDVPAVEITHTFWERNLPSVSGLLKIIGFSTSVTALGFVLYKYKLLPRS
observed-property: Ki

IN: Would you kindly share the measured Ki for COc1ccc(/C=C/C(=O)NCCc2ccccc2)cc1O ?
OUT: 1950 nM

---

Molecular target: UniProt:P22303
Assay: Inhibition of human AchE preincubated for 6 mins followed by substrate addition and measured upto 3 mins using acetylthiocholine iodide as substrate by Ellman's method
observed-property: pIC50
Would you please state pIC50, meaning minus log10 of the concentration in mol/L, as a bare number?

IN: Need pIC50 of COc1cc(/C=C/C(=O)OCCCCCN(C)Cc2cccc(OC(=O)N(C)C)c2)ccc1O , thanks.
OUT: 7.71

---

Biological target: Amine oxidase [flavin-containing] B (Homo sapiens)
Sequence (P27338 whole entry): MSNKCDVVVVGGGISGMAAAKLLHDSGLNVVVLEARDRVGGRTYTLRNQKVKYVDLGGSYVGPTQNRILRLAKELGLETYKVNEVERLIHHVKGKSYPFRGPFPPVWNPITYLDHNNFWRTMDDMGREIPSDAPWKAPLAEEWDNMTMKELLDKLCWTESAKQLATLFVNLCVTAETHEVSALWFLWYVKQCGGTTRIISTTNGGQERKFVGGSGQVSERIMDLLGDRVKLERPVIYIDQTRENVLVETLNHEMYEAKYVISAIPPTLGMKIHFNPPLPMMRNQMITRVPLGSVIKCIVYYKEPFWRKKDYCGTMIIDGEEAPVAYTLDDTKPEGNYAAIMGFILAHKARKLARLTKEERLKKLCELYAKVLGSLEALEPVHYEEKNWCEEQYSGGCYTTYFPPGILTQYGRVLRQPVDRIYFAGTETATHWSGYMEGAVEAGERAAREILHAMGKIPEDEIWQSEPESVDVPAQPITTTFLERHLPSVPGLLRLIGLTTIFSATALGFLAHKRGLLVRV
Assay: Inhibition of recombinant human MAO-B using kynuramine as substrate preincubated for 15 mins followed by enzyme addition and further incubated for 20 mins by fluorescence microplate reader analysis
observed-property: pIC50
pIC50 (log units): -log10 of the concentration in mol/L.

IN: GET /values?readout=pIC50&item= O=C(/C=C/c1ccc(O)cc1)OCCc1ccccc1
OUT: 7.89

---

Target: Acetylcholinesterase (Electrophorus electricus, UniProt O42275)
Sequence (O42275 whole entry): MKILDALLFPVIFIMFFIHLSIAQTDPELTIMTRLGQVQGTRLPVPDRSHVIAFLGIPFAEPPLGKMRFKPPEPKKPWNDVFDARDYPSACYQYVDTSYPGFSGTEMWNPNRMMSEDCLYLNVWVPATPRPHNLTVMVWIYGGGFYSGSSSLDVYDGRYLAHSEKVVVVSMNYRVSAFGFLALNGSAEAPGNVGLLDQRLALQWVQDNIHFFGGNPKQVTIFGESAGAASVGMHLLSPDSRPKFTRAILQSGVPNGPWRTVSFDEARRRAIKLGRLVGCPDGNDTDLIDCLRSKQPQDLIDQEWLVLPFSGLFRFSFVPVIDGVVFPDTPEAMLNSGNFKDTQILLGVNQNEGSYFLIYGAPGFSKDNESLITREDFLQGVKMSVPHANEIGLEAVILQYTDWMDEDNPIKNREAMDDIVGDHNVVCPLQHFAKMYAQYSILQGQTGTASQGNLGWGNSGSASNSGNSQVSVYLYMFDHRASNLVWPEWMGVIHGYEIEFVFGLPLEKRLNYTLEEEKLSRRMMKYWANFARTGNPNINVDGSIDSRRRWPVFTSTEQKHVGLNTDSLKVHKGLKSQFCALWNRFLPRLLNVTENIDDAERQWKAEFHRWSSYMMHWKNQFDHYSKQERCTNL
Assay: Inhibition of electric eel AChE preincubated for 5 mins followed by substrate addition using acetylthiocholine iodide as substrate by Ellman's method
observed-property: pIC50
The value called pIC50 is obtained by taking minus log10 of the concentration in mol/L.

IN: # get_value(readout='pIC50', item= COc1cc(/C=C/C(=O)NCCC2CCN(Cc3ccccc3)CC2)cc(OC)c1O )
OUT: 6.41

---

Quick reference: IC50 of the listed items.
Test: Antioxidant activity assessed as ABTS radical cation scavenging activity measured every minute for 15 mins by spectrophotometeric analysis
Format: functional
Give just the numeric value; µM need not be written.

INSERT INTO measurements (molecule, observed_property, quantitative_result) VALUES
  ('COc1cc(/C=C/C(=O)O)ccc1S', 'IC50', 19.9);

Okay, next one:
IN: Form field: reported IC50 of COc1cc(/C=C/C(=O)O)ccc1O [FERULATE]
OUT: 16.8

---

Molecular target: Cholinesterase (Homo sapiens, UniProt P06276)
Experiment: Inhibition of human BuchE preincubated for 30 mins followed by substrate addition using butyrylthiocholine iodide as substrate by Ellman's method
Property: IC50; scope: individual molecules
Quick note: number first, unit second.

INSERT INTO results (molecule, result) VALUES
  ('O=C(CCCCC1CCSS1)O[C@H]1C[C@H]2O[C@H](OC(=O)NCc3ccccc3)C[C@H]2O1 (some centres undefined)', '150 nM'),
  ('CCCCNC(=O)O[C@@H]1C[C@H]2O[C@@H](OC(=O)CCCCC3CCSS3)C[C@H]2O1 (some centres undefined)', '170 nM'),
  ('COc1cc(/C=C/C(=O)O[C@H]2C[C@H]3O[C@H](OC(=O)Nc4ccccc4)C[C@H]3O2)ccc1O', '29200 nM');

IN: Find the recorded IC50 belonging to CCCCNC(=O)O[C@@H]1C[C@H]2O[C@@H](OC(=O)/C=C/c3ccc(O)c(OC)c3)C[C@H]2O1 and report it.
OUT: 430 nM

---

Target: Acetylcholinesterase (Electrophorus electricus)
Experiment: Inhibition of electric eel AChE incubated for 15 mins using acetylthiocholine as substrate by Ellman's method
observed-property: IC50

IN: Fill in: IC50 of COc1cc(/C=C/C(=O)N2CCc3ccccc3C2)ccc1OCCCCN(CNCc1ccccc1)CNCc1ccccc1 is ___
OUT: 12.1 µM
